This listing pairs compounds with measured Mean % Remaining vs T = 0 min, with HI (Heat Inactivated) Microsomes.
Assay Info: Incubation with heat-inactivated human liver microsomes (stability control)
Condition: 1 μM, 60 min
Respond numerically; units are % and should not be typed.

- Compound: "C#Cc1ccc2c(c1)C(c1ccccc1F)=N[C@@H](C)c1c(C(=O)OCC)ncn1-2 [SH-053-2′F-SCH3]"
  Numeric Result: 110
- Compound: "C#Cc1ccc2c(c1)C(c1ccccn1)=NCc1c(C(=O)NC)ncn1-2 [HJ-I-40]"
  Numeric Result: 110
- Compound: "C#Cc1ccc2c(c1)C(c1ccccc1)=NCc1c(C(=O)OCC)ncn1-2 [XHe-II-053]"
  Numeric Result: 107
- Compound: "C#Cc1ccc2c(c1)C(c1ccccc1F)=NCc1c(C(=O)NC)ncn1-2 [HJ-I-037]"
  Numeric Result: 117
- Compound: "C#Cc1ccc2c(c1)C(c1ccccn1)=NCc1c(C(=O)OCC)ncn1-2 [HZ-166]"
  Numeric Result: 94.1
- Compound: "C#Cc1ccc2c(c1)C(c1ccccc1)=NCc1c(C(=O)OCCCOC(=O)c3ncn4c3CN(C)C(=O)c3cc(Cl)ccc3-4)ncn1-2"
  Numeric Result: 141
- Compound: "C#Cc1ccc2c(c1)C(c1ccccc1F)=NCc1c(C(=O)OCCCOC(=O)c3ncn4c3CN=C(c3ccccc3F)c3cc(C#C)ccc3-4)ncn1-2 [YT-III-271]"
  Numeric Result: 117

Data request, read-out Mean % Remaining vs T = 0 min, with HI (Heat Inactivated) Microsomes, for C#Cc1ccc2c(c1)C(c1ccccc1F)=NCc1c(C(=O)OCC)ncn1-2 [JY-XHe-053]
102
